- target_under_test: T1, NP (ΔNPNTD) NTD (Zaire ebolavirus), P18272
- T1 chain: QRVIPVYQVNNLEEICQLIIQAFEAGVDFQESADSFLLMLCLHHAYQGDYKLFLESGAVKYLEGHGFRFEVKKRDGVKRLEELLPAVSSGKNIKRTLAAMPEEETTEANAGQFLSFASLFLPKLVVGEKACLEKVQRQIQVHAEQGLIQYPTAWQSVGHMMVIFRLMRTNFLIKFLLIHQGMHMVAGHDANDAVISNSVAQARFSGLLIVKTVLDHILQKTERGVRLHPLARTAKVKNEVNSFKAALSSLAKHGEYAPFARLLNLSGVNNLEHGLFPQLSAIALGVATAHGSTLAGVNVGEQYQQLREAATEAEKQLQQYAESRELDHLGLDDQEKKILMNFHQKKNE
- condition_parameters: modification not given
observable: Kd (µM)

> print(dat)
                                     binder  test.result
1  MPGPELSGWISEQLMTGRIPVSDIFCDIE [VP35 NPBP 20-48, Q05127]        0.032
